System: IL-5 production
Test: In vitro inhibition of IL-5 production in human blood (phytohemagglutinin-stimulated whole blood, ELISA);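 also: values marked with an asterisk were tested at 10 µM and unmarked values at 1 µM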
Assay type: cell-based
Details: test dose 1×10^−6 M, 48 hours
Method: In Vitro Inhibition of IL-5 Production in Human Blood Human Whole Blood Stimulation Peripheral blood from healthy male donors was drawn into heparinized syringes (12.5 U heparin/ml). Blood samples were three-fold diluted in RMPI 1640 medium (Life Technologies, Belgium) supplemented with 2 mM L-glutamine, 100 U/ml penicillin and 100 μg/ml streptomycin, and 300 μl fractions were distributed in 24-well multidisc plates. […]
readout type: % inh. (percentage inhibition of IL-5 production)

>  <compound>
O=c1cnn(-c2cc(Cl)c(C(Sc3ccccn3)c3ccc(Cl)c(C(F)(F)F)c3)c(Cl)c2)c(=O)[nH]1 (stereo not drawn)

>  <recorded value>
91%

$$$$
>  <compound>
O=c1cnn(-c2ccc(C(c3ccc(Cl)cc3)c3sc(-c4ccccc4)nc3-c3ccccc3)c(Cl)c2)c(=O)[nH]1 (racemic)

>  <recorded value>
45%

$$$$
>  <compound>
O.O=c1cnn(-c2cc(Cl)c(C(c3ccc(Cl)cc3)c3nnc(-c4ccncc4)o3)c(Cl)c2)c(=O)[nH]1 (racemic)

>  <recorded value>
92%

$$$$
>  <compound>
O=c1cnn(-c2cc(Cl)c(C(c3ccc(Cl)cc3)c3nnc(-c4ccccc4[N+](=O)[O-])o3)c(Cl)c2)c(=O)[nH]1 (racemic)

>  <recorded value>
79%

$$$$
>  <compound>
Cc1sc(C(c2ccc(Cl)c(C(F)(F)F)c2)c2c(Cl)cc(-n3ncc(=O)[nH]c3=O)cc2Cl)nc1-c1ccccc1 (racemic)

>  <recorded value>
94%

$$$$
>  <compound>
O.O=c1cnn(-c2ccc(C(Sc3nccc(O)n3)c3ccc(Cl)cc3)c(Cl)c2)c(=O)[nH]1 (racemic)

>  <recorded value>
14%

$$$$

====

Test system: IL-5 production
Assay: In vitro inhibition of IL-5 production in human blood (phytohemagglutinin-stimulated whole blood, ELISA);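 also: values marked with an asterisk were tested at 10 µM and unmarked values at 1 µM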
Type: cell-based
Details: test dose 1×10^−6 M, 48 hours
readout type: % inh. (percentage inhibition of IL-5 production) (%)

>  <molecule>
O=c1cnn(-c2cc(Cl)c(C(c3ccc(Cl)cc3)c3nc(-c4ccccc4)c(CN4CCOCC4)s3)c(Cl)c2)c(=O)[nH]1 (racemic)

>  <target system>
IL-5 production

>  <unit of measurement>
%

>  <recorded value>
94

$$$$
>  <molecule>
O=c1cnn(-c2cc(Cl)c(C(c3ccc(Cl)cc3)c3nnc(-c4cccs4)o3)c(Cl)c2)c(=O)[nH]1 (racemic)

>  <target system>
IL-5 production

>  <unit of measurement>
%

>  <recorded value>
87

$$$$
>  <molecule>
O=c1cnn(-c2cc(Cl)c(C(c3ccc(Cl)cc3)c3nc(-c4cccc(Cl)c4)cs3)c(Cl)c2)c(=O)[nH]1 (racemic)

>  <target system>
IL-5 production

>  <unit of measurement>
%

>  <recorded value>
83

$$$$
>  <molecule>
COc1cc(-n2ncc(=O)[nH]c2=O)ccc1C(C)(c1ccc(Cl)c(C(F)(F)F)c1)c1nc(-c2ccccc2)cs1 (racemic)

>  <target system>
IL-5 production

>  <unit of measurement>
%

>  <recorded value>
67

$$$$
>  <molecule>
O=c1cnn(-c2cc(Cl)c(C(c3ccc(Cl)cc3)c3nc(-c4cc(F)ccc4F)cs3)c(Cl)c2)c(=O)[nH]1 (racemic)

>  <target system>
IL-5 production

>  <unit of measurement>
%

>  <recorded value>
92

$$$$
>  <molecule>
Cn1ccnc1SC(c1ccc(Cl)cc1)c1ccc(-n2ncc(=O)[nH]c2=O)cc1Cl (racemic)

>  <target system>
IL-5 production

>  <unit of measurement>
%

>  <recorded value>
5

$$$$

All figures here come from patent US6867207B2.
